Reference source for all entries: PubChem BioAssay AID1963835

# System: 699152-130-R-J1-PDC complex spheroid viability;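 also: spheroids exposed to agents for 7 days before viability reading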
# Assay Explanation: Anticancer human tumor 699152-130-R-J1-PDC patient-derived pancreatic carcinoma cell line growth inhibition [POLQ]
# Experimental Conditions: curve of first compound; second compound 0.0316 µM
pIC50: −log10 of the molar value.
Examples of compounds with documented pIC50 follow.

These solved cases illustrate the format of a correct answer.
- Compound: "CCc1cc2c(N3CCc4c(cc(Cn5ccnc5)cc4-c4cn(C)nc4C(F)(F)F)C3=O)cc(C)nc2c(OC)n1 + COC1C(OC(N)=O)C(O)C(Oc2ccc3c(O)c(NC(=O)c4ccc(O)c(CC=C(C)C)c4)c(=O)oc3c2C)OC1(C)C"
  Test Target: "699152-130-R-J1-PDC complex spheroid viability"
  Val: "< 5.00"
- Compound: "O=C(Nc1ccc(O)c(NS(=O)(=O)c2ccc(F)cc2)c1)c1ccc(-c2ccccc2)cc1 + Nc1ccc(C#CCN(C(=O)Cc2ncc(C(F)(F)F)cc2C(F)(F)F)c2ccc(F)cc2)nn1"
  Test Target: "699152-130-R-J1-PDC complex spheroid viability"
  Val: "< 5.00"
- Compound: "CCc1cc2c(N3CCc4c(cc(Cn5ccnc5)cc4-c4cn(C)nc4C(F)(F)F)C3=O)ccnc2c(OC)n1 + Cc1cccc(N(C)C(=O)C2C(O)CCN2c2nc(C)cc(C(F)(F)F)c2C#N)c1"
  Test Target: "699152-130-R-J1-PDC complex spheroid viability"
  Val: "< 5.00"

API: the following record is the query input.
Problem: Give the reported value of pIC50 for this record: Cn1ncnc1[C@H]1c2n[nH]c(=O)c3cc(F)cc(c23)N[C@@H]1c1ccc(F)cc1 + Nc1ccc(C#CCN(C(=O)Cc2ncc(C(F)(F)F)cc2C(F)(F)F)c2ccc(F)cc2)nn1
Result: < 7.00
